Attribution: ChEMBL document CHEMBL4392848

Target: Collagenase 3 (Homo sapiens)
pIC50: −log10 of the molar value.
Hi, to clarify the labels: criterion met covers pIC50 from 8 upward, criterion not met covers anything below 8.

Is pIC50 at least 8? Consider O=C(NO)[C@@H]1C[C@H](O)CN1C(=O)c1ccc(C#Cc2ccc(OCCCCCF)cc2)cc1
criterion met

Here is the next compound: O=C(NO)[C@@H]1CCCN1C(=O)c1ccc(C#Cc2ccc(CN3CCOCC3)cc2)cc1
criterion not met

Here is the next compound: O=C(NO)[C@@H]1[C@H](O)[C@H](O)CN1C(=O)c1ccc(C#Cc2ccc(CN3CCOCC3)cc2)cc1
criterion not met

Here is the next compound: CCCCCc1ccc(C#Cc2ccc(C(=O)N3C[C@@H](O)C[C@H]3C(=O)NO)cc2)cc1
criterion met

Here is the next compound: O=C(NO)[C@H]1CCCN1C(=O)c1ccc(C#Cc2ccc(CN3CCOCC3)cc2)cc1
criterion not met

Here is the next compound: O=C(NO)[C@@H]1CCCN1Cc1ccc(C#Cc2ccc(CN3CCOCC3)cc2)cc1
criterion not met

Here is the next compound: O=C(NO)[C@@H]1C[C@@H](O)CN1C(=O)c1ccc(C#Cc2ccc(CN3CCOCC3)cc2)cc1
criterion not met

Here is the next compound: O=C(NO)[C@@H]1C[C@@H](O)CN1Cc1ccc(C#Cc2ccc(CN3CCOCC3)cc2)cc1
criterion not met
